Item-by-item account of GI50
System: UO-31
assaySummary: NCI tumour cell line growth inhibition, 48 h
Active and inactive are the calls of the source. Cut-off read from the data, not from the text of the source: active = GI50 up to about 1.1 µM and inactive = higher.
endpoint: GI50

>  <molecule>
CN1c2ccccc2NC(CC(=O)O)C2CC=CN21 (stereo not given)

>  <systemUnderTest>
UO-31

>  <endpoint>
GI50

>  <assayValue>
> 100 µM (inactive)

$$$$
>  <molecule>
CC(=O)O[C@H]1CC2C(C3CC[C@H](C(C)CCC(N)=O)[C@]31C)[C@H](OC(C)=O)C[C@@H]1CC3(CC[C@]21C)OOC1(CCC(C)CC1)OO3 (stereo not given in full)

>  <systemUnderTest>
UO-31

>  <endpoint>
GI50

>  <assayValue>
1.56 µM (inactive)

$$$$
>  <molecule>
CC(C)C(=O)NCC[C@@H](CNC(=O)OC(C)(C)C)NC(=O)OC(C)(C)C

>  <systemUnderTest>
UO-31

>  <endpoint>
GI50

>  <assayValue>
> 100 µM (inactive)

$$$$
>  <molecule>
COc1ccc(-n2c(N)c(C#N)[nH]c2=O)cc1

>  <systemUnderTest>
UO-31

>  <endpoint>
GI50

>  <assayValue>
> 10 µM (inactive)

$$$$
>  <molecule>
Cc1cc2c(C)nn(Cc3ccc(Cl)cc3Cl)c2c(C#N)c1C

>  <systemUnderTest>
UO-31

>  <endpoint>
GI50

>  <assayValue>
> 100 µM (inactive)

$$$$
>  <molecule>
COc1ccc(/C=C2\NC(=S)N(CN3CCCCC3)C2=O)cc1

>  <systemUnderTest>
UO-31

>  <endpoint>
GI50

>  <assayValue>
37.1 µM (inactive)

$$$$
>  <molecule>
Sc1nnc(COc2ccc(Cl)cc2)n1-c1ccccc1

>  <systemUnderTest>
UO-31

>  <endpoint>
GI50

>  <assayValue>
61.2 µM (inactive)

$$$$
>  <molecule>
CCO[C@H]1O[C@@H]2OC3(C)CCC4[C@H](C)CCC([C@H]1C)[C@]42OO3 (stereo not given in full)

>  <systemUnderTest>
UO-31

>  <endpoint>
GI50

>  <assayValue>
15.4 µM (inactive)

$$$$
>  <molecule>
CC(C)C1OC(=O)/C=C/C=C/C=C/C=C/C=C/CC(O)CC(O)CC(O)CC(O)CC(O)CC(O)CC(O)CC(O)/C=C/C1C (stereo not given)

>  <systemUnderTest>
UO-31

>  <endpoint>
GI50

>  <assayValue>
> 100 µM (inactive)

$$$$
>  <molecule>
O=C(CO)CC(=O)C(=O)Nc1cccc(C(F)(F)F)c1

>  <systemUnderTest>
UO-31

>  <endpoint>
GI50

>  <assayValue>
> 100 µM (inactive)

$$$$
>  <molecule>
O=C1NCC(CSc2nc3cc(C4CCCc5c4[nH]c4ccccc54)ccc3o2)N1 (stereo not given)

>  <systemUnderTest>
UO-31

>  <endpoint>
GI50

>  <assayValue>
53.1 µM (inactive)

$$$$
>  <molecule>
CN1C(=O)c2ccccc2NC(=O)C12O[C@@H]2c1ccccc1 (stereo not given in full)

>  <systemUnderTest>
UO-31

>  <endpoint>
GI50

>  <assayValue>
> 100 µM (inactive)

$$$$
>  <molecule>
O=C1OC(O)c2cc3c(cc21)OCO3 (stereo not given)

>  <systemUnderTest>
UO-31

>  <endpoint>
GI50

>  <assayValue>
> 100 µM (inactive)

$$$$
>  <molecule>
Cc1cc(=O)oc2c3c(ccc12)OC(c1ccc(Br)cc1)CC3=O (stereo not given)

>  <systemUnderTest>
UO-31

>  <endpoint>
GI50

>  <assayValue>
10.3 µM (inactive)

$$$$
>  <molecule>
C=CC(C)(C)N[C@@H](C(=O)N1CCC[C@H]1c1nc(-c2nc(C(=O)OCC=C(C)C)c(C)o2)c(C)o1)C(C)C

>  <systemUnderTest>
UO-31

>  <endpoint>
GI50

>  <assayValue>
14.3 µM (inactive)

$$$$
>  <molecule>
O=S(=O)(O)c1ccc2c(/N=N/c3ccc(S(=O)(=O)O)c4ccccc34)c(O)c(S(=O)(=O)O)cc2c1

>  <systemUnderTest>
UO-31

>  <endpoint>
GI50

>  <assayValue>
> 100 µM (inactive)

$$$$
>  <molecule>
CCCCSC(=CC(=O)c1cccc(C(=O)C=C(SCCCC)SCCCC)n1)SCCCC

>  <systemUnderTest>
UO-31

>  <endpoint>
GI50

>  <assayValue>
> 100 µM (inactive)

$$$$
>  <molecule>
O=C1Nc2ccc(S(=O)(=O)O)cc2/C1=N/Nc1ccccc1[N+](=O)[O-]

>  <systemUnderTest>
UO-31

>  <endpoint>
GI50

>  <assayValue>
> 100 µM (inactive)

$$$$
>  <molecule>
O=C(O)C1CCCN1Cc1ccc2c(c1)OCO2 (stereo not given)

>  <systemUnderTest>
UO-31

>  <endpoint>
GI50

>  <assayValue>
> 100 µM (inactive)

$$$$
>  <molecule>
N#Cc1c(-c2ccc(F)cc2)c(-c2ccc(F)cc2)nn(CCO)c1=O

>  <systemUnderTest>
UO-31

>  <endpoint>
GI50

>  <assayValue>
1.38 µM (inactive)

$$$$

----------
System: MCF7
assaySummary: NCI tumour cell line growth inhibition, 48 h
Activity calls are given as the source filed them. Rule as the data show it: active = GI50 up to about 1.1 µM and inactive = higher.
Outcomes: active, inactive

>  <compound>
CC[C@@]1(O)C(=O)OCc2c1cc1n(c2=O)Cc2c-1nc1ccccc1c2/C=N\NC(=O)C(N)Cc1ccc(O)cc1 (some centres undefined)

>  <assignedCategory>
active

$$$$
>  <compound>
COc1cc2c(cc1OC)-c1cc3ccccc3c(=O)n1CCC2

>  <assignedCategory>
inactive

$$$$
>  <compound>
C=CC(C)(C)N[C@@H](C(=O)N1CCC[C@H]1c1nc(-c2nc(C(=O)OCC=C(C)C)c(C)o2)c(C)o1)C(C)C

>  <assignedCategory>
inactive

$$$$
>  <compound>
CC1=CC(=O)/C(=C/n2c(=S)[nH]c3ccc([N+](=O)[O-])cc32)C(=O)O1

>  <assignedCategory>
inactive

$$$$
>  <compound>
CC/C(Cl)=N\OC(=O)Nc1ccc(OC)c(C)c1

>  <assignedCategory>
inactive

$$$$
>  <compound>
FC(F)(F)c1nc2cc(SSc3cc4nc(C(F)(F)F)[nH]c4cc3Cl)c(Cl)cc2[nH]1

>  <assignedCategory>
inactive

$$$$
>  <compound>
CC1CC(C)CN(S(=O)(=O)c2cc(Cl)c(Oc3ccc([N+](=O)[O-])cc3Cl)c(Cl)c2)C1 (centres undefined)

>  <assignedCategory>
inactive

$$$$
>  <compound>
CC(C)(C)OC(=O)NC(Cc1ccc(OCc2ccccc2)cn1)C(=O)N1CCSCC1 (centres undefined)

>  <assignedCategory>
inactive

$$$$
>  <compound>
COc1ccc(C2SCC(=O)N2c2ccc(-c3ccc(-n4c(-c5ccccc5)nc5ccccc5c4=O)cc3)cc2)cc1OC (centres undefined)

>  <assignedCategory>
inactive

$$$$

----------
Tested on: M14
assaySummary: NCI tumour cell line growth inhibition, 48 h
Calls of active or inactive are those of the source. Rule as the data show it: active = GI50 up to about 1.1 µM and inactive = higher.

>  <compound>
C[C@@]12C[C@@H](c3ccccc3O1)N1CCCCSC1=N2

>  <GI50>
> 100 µM (inactive)

$$$$
>  <compound>
COc1ccc(CC(COS(=O)(=O)c2ccc(C)cc2)NS(=O)(=O)c2ccc(C)cc2)cc1 (stereo not given)

>  <GI50>
8.34 µM (inactive)

$$$$
>  <compound>
CC(C)NC(=O)OCc1c(COC(=O)NC(C)C)c(-c2cc[n+](COC(=O)CC(C)(C)C)cc2)n2c1CCC2

>  <GI50>
> 100 µM (inactive)

$$$$
>  <compound>
C=C1CCCC(C)(C)C1CCC1(C)CCC(C(C)C(=O)OC)OO1 (stereo not given)

>  <GI50>
9.66 µM (inactive)

$$$$
>  <compound>
CCOC(=O)C/N=c1\nc(SC)sc2c(C(=O)OCC)nc(Sc3ccccc3)n12

>  <GI50>
> 100 µM (inactive)

$$$$
>  <compound>
CCN(CC)c1ncnc2c1ncn2CCNC(CO)(CO)CO

>  <GI50>
> 100 µM (inactive)

$$$$
>  <compound>
N#Cc1c(N)nc(SCc2ccccc2)c(C#N)c1-c1ccc(O)cc1

>  <GI50>
14.2 µM (inactive)

$$$$
>  <compound>
[N-]=[N+]=Nc1ccccc1-[n+]1noc([O-])c1Br

>  <GI50>
> 100 µM (inactive)

$$$$
>  <compound>
CCn1c(=O)c2nc(SC)sc2n(-c2ccccc2)c1=S

>  <GI50>
65.3 µM (inactive)

$$$$
>  <compound>
CSCCCNC(=O)[C@H](CSC)NC(=O)c1csc(CCNC(=O)[C@@H](NSc2ccccc2[N+](=O)[O-])C(C)O)n1 (stereo not given in full)

>  <GI50>
> 100 µM (inactive)

$$$$

----------
System: IGROV-1
assaySummary: NCI tumour cell line growth inhibition, 48 h
Activity calls are given as the source filed them. Cut-off read from the data, not from the text of the source: active = GI50 up to about 1.1 µM and inactive = higher.
Labels: yes for active, no for inactive

>  <molecule>
COc1cccc(NC(=O)CC(=O)NNCC(=O)Nc2nnc(-c3ccc(N(CCC#N)S(=O)(=O)c4ccccc4)cc3)s2)c1

>  <assignedCategory>
no

$$$$
>  <molecule>
COc1ccc(NC(=O)/C(CC2=Nc3ccc([N+](=O)[O-])cc3NC2O)=N\NC(=O)C[N+](C)(C)C)c(OC)c1 (stereo not given)

>  <assignedCategory>
no

$$$$
>  <molecule>
C=CCSc1ncnc2c1ncn2C1OC(CO)C(O)C1O (stereo not given)

>  <assignedCategory>
no

$$$$
>  <molecule>
COc1ccc(C(C2=C(C)C(=O)c3ccccc3C2=O)c2ccc(C(C)C)cc(=O)c2O)cc1 (stereo not given)

>  <assignedCategory>
no

$$$$
>  <molecule>
O=C(O)c1cc(N(Cc2ccccc2O)Cc2cc(O)ccc2O)ccc1O

>  <assignedCategory>
no

$$$$
>  <molecule>
O=C1Nc2ccc(Br)cc2/C1=N/S(=O)(=O)O

>  <assignedCategory>
no

$$$$
>  <molecule>
COC(=O)CCC(=O)Nc1cccc(C(F)(F)F)c1

>  <assignedCategory>
no

$$$$
>  <molecule>
CN(/N=C\c1ccnc2ccccc12)c1ccc([N+](=O)[O-])cc1

>  <assignedCategory>
no

$$$$
>  <molecule>
Cc1cc(C)c(C(=O)OC(c2ccccc2)C(c2ccccc2)N2CCOCC2)c(C)c1 (stereo not given)

>  <assignedCategory>
no

$$$$
>  <molecule>
COc1ccc2nc(-c3ccc(OC(=O)N(C)C)cc3)cn2c1

>  <assignedCategory>
no

$$$$
>  <molecule>
CN1C(=O)C2C=CC1C1CCC2N(C)C1=O (stereo not given)

>  <assignedCategory>
no

$$$$
>  <molecule>
CCOC(=O)C/N=c1\nc(SC)sc2c(C(=O)OCC)nc(Sc3ccccc3)n12

>  <assignedCategory>
no

$$$$
>  <molecule>
CC[C@@H](C)[C@@H]1NC(=O)C(C(C)=O)=C1O

>  <assignedCategory>
no

$$$$
>  <molecule>
CC(C)C(=O)NCC[C@@H](CNC(=O)OC(C)(C)C)NC(=O)OC(C)(C)C

>  <assignedCategory>
no

$$$$
>  <molecule>
COc1ccc(C(O)C(c2ccc(OCc3ccccc3)cc2)c2ccc(OCc3ccccc3)cc2)cc1 (stereo not given)

>  <assignedCategory>
no

$$$$
>  <molecule>
Cc1cc(C2(c3cc(C)c(O)c4ncccc34)OC(=O)c3ccccc32)c2cccnc2c1O

>  <assignedCategory>
yes

$$$$
>  <molecule>
COc1ccc(C2=Nn3c(nc4sc(-c5ccccc5)cc4c3=O)SC2)cc1

>  <assignedCategory>
no

$$$$
>  <molecule>
CCCCCCCCCCCCCCCC(=O)OCC1OC(N2C(=O)/C(=N\NC(N)=S)c3ccc([N+](=O)[O-])cc32)C(OC(C)=O)C1OC(C)=O (stereo not given)

>  <assignedCategory>
no

$$$$
>  <molecule>
O=C(NN1C(=O)C(Cl)C1c1c(O)ccc2ccccc12)c1ccccc1O (stereo not given)

>  <assignedCategory>
no

$$$$
>  <molecule>
CC(C)C1OC(=O)/C=C/C=C/C=C/C=C/C=C/CC(O)CC(O)CC(O)CC(O)CC(O)CC(O)CC(O)CC(O)/C=C/C1C (stereo not given)

>  <assignedCategory>
no

$$$$
